target: Sodium channel protein type 3 subunit alpha (Homo sapiens, UniProt Q9NY46); experiment: Inhibition of human Nav1.3 expressed in SHSY5Y cells by IonWorks Quattro selectivity assay
Sequence (Q9NY46 whole entry): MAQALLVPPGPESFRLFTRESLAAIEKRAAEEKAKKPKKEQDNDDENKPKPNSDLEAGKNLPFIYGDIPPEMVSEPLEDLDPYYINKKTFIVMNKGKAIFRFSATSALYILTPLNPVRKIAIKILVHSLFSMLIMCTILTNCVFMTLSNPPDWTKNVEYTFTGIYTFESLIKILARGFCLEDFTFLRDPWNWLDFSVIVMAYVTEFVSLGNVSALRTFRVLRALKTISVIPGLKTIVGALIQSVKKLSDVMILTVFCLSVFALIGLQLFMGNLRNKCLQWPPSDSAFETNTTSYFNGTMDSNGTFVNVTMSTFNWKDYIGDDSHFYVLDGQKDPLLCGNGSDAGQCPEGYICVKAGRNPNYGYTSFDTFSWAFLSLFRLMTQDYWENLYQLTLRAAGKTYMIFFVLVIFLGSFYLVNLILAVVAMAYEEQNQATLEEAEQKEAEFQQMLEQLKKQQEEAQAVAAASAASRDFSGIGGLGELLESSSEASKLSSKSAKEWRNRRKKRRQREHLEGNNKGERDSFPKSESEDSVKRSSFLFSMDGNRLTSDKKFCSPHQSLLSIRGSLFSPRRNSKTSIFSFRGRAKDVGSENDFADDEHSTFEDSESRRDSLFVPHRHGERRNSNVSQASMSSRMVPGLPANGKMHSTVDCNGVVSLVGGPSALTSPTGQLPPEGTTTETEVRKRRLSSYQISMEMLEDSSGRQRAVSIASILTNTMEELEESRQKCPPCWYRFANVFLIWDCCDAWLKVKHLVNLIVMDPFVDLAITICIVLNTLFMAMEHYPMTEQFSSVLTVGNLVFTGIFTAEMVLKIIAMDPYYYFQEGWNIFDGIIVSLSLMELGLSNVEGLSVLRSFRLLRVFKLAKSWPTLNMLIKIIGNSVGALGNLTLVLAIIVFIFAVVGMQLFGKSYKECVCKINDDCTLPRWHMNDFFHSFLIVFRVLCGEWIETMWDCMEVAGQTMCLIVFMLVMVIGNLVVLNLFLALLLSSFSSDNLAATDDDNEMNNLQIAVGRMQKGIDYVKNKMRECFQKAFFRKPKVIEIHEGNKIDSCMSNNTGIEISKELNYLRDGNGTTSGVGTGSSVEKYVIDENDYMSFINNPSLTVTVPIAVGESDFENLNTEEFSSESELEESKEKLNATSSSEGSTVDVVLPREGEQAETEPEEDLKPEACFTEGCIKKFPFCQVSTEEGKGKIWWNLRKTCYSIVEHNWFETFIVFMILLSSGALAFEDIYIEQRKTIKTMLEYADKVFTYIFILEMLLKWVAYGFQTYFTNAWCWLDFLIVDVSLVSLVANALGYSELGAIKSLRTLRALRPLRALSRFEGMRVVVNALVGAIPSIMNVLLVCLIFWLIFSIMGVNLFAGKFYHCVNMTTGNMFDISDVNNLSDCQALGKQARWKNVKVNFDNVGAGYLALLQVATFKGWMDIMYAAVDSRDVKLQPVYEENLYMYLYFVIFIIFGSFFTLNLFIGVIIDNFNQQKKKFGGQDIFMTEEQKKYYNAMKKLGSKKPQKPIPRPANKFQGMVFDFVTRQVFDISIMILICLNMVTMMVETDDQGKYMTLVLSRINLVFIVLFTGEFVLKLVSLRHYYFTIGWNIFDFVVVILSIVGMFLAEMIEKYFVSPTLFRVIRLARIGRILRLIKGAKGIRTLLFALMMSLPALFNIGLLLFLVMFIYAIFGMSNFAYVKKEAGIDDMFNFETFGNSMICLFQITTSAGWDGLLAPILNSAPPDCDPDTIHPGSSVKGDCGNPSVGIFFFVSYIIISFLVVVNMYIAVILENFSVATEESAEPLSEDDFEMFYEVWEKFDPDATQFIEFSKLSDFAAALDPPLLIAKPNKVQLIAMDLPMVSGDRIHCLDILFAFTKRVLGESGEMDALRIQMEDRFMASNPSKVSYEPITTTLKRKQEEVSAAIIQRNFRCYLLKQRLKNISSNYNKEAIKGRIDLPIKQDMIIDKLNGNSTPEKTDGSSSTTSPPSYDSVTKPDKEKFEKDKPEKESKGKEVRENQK
Reported Endpoint: IC50 (µM)
Your answer is read as µM, so omit the unit and give the number.

Lab note: measured IC50 of Cc1nocc1C(=O)Nc1ccc(-c2ccccc2OC(F)(F)F)c(N)n1 was 10

----------
target: Sodium channel protein type 9 subunit alpha (Homo sapiens); test: Inhibition of human Nav1.7 expressed in SHSY5Y cells by FRET assay; assay type: cell-based, SH-SY5Y
Sequence (Q15858 whole entry): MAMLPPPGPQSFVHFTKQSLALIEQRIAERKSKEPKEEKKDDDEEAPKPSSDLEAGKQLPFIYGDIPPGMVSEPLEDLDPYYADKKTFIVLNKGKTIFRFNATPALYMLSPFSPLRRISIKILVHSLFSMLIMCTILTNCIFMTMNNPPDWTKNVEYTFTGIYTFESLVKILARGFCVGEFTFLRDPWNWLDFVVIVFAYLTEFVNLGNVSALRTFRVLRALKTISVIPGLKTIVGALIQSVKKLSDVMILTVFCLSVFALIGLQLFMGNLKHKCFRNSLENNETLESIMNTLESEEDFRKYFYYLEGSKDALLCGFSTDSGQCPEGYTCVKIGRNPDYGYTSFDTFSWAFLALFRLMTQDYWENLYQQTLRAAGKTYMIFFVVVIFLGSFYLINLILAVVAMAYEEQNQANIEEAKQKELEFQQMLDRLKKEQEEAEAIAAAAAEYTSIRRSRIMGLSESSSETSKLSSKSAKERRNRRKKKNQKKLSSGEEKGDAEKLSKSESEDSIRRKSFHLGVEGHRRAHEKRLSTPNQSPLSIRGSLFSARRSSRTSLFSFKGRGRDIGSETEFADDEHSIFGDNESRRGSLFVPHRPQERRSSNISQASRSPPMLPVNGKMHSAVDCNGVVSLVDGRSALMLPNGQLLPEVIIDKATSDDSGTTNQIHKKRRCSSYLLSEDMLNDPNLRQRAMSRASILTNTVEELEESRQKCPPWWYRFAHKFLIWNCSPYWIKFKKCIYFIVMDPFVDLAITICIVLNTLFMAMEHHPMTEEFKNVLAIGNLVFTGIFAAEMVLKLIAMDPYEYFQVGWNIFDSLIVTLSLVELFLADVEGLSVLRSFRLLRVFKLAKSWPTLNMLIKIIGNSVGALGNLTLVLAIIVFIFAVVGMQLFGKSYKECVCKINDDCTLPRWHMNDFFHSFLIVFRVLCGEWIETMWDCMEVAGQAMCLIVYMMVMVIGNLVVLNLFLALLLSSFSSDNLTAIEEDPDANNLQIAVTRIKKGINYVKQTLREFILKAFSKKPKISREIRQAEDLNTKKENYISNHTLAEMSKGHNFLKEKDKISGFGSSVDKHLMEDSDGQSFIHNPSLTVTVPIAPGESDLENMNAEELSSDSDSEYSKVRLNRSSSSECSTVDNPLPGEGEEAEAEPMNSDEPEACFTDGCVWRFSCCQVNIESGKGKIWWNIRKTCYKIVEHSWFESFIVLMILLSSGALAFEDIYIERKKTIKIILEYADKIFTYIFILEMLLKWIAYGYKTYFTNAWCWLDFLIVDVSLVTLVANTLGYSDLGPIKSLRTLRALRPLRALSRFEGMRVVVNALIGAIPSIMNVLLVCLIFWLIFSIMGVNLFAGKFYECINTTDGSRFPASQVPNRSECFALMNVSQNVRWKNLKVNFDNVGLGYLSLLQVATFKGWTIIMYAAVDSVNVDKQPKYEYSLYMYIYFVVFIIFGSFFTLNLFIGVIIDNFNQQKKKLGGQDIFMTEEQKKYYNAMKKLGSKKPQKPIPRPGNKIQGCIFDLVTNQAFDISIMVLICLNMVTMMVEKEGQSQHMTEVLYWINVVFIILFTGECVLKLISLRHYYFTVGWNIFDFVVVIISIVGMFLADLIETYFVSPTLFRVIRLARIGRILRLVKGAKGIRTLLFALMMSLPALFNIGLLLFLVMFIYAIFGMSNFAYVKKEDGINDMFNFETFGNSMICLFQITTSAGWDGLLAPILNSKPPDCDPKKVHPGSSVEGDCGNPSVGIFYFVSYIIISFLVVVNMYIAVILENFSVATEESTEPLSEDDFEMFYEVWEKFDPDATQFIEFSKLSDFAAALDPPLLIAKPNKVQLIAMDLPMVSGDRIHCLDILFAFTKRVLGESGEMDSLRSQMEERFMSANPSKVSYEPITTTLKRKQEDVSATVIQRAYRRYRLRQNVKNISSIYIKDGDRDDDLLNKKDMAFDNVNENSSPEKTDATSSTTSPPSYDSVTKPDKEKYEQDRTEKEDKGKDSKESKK
Reported Endpoint: IC50 (µM)
Your answer is read as µM, so omit the unit and give the number.

IC50 for Sodium channel protein type 9 subunit alpha (Homo sapiens) with input Cc1nocc1C(=O)Nc1ccc(-c2ccccc2OC(F)(F)F)c(N)n1 equals 10

----------
experiment: Plasma clearance in rat at 1 mg/kg, iv; type: ADME, organism-based
Reported Endpoint: clearance (mL/min/kg)
Your answer is read as mL/min/kg, so omit the unit and give the number.

Lab note: measured clearance of COc1ccc(Cl)c(-c2ccc(NC(=O)c3ccnn3C)nc2N)c1 was 6.7

----------
target: Voltage-gated inwardly rectifying potassium channel KCNH2 (Homo sapiens, UniProt Q12809)
Sequence (Q12809 whole entry): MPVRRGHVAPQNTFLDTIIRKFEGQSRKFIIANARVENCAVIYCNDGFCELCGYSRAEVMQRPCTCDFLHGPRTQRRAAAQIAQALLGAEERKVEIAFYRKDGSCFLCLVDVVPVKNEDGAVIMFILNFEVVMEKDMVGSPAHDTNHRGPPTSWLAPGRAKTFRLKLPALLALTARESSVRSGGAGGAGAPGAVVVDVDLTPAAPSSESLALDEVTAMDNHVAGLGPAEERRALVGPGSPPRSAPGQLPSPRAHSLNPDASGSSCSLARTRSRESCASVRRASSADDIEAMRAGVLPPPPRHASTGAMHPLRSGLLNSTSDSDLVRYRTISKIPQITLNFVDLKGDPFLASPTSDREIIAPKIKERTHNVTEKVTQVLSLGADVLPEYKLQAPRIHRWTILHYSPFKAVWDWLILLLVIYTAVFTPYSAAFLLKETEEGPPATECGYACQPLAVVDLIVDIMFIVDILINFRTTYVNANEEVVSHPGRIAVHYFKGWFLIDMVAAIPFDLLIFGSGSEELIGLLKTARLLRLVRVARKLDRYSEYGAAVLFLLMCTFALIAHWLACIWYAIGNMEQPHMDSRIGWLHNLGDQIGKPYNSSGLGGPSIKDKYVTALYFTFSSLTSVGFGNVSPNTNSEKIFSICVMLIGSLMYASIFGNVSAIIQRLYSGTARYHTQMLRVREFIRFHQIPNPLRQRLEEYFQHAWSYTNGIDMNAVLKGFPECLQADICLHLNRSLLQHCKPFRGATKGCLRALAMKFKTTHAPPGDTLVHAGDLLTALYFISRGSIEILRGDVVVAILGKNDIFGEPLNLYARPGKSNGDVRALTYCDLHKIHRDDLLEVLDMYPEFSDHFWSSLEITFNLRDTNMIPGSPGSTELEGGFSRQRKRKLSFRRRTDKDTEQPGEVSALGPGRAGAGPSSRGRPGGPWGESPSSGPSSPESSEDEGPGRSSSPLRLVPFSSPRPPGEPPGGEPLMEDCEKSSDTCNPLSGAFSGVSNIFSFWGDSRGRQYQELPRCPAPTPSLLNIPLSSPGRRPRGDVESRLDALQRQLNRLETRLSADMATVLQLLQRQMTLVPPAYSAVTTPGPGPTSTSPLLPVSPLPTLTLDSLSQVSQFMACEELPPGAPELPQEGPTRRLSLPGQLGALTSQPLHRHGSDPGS
Reported Endpoint: IC50 (µM)
Your answer is read as µM, so omit the unit and give the number.

Lab note: measured IC50 of CNC(=O)c1ccc(-c2cc(Cl)cc(Cl)c2Cl)c(N)n1 was 30

----------
Listing of recorded IC50 by entry.
target: Sodium channel protein type 1 subunit alpha (Homo sapiens); assay: Inhibition of human Nav1.1 expressed in HEK293 cells by IonWorks Quattro selectivity assay
Please answer in the form of a number followed by its unit of measurement.

* CNC(=O)c1ccc(-c2cc(Cl)cc(Cl)c2Cl)c(N)n1 | 13 µM

Lab note: measured IC50 of COc1ccc(Cl)c(-c2ccc(NC(=O)c3ccnn3C)nc2N)c1 was 37 µM

----------
Listing of recorded IC50 by entry.
test: Inhibition of Voltage gated sodium channel-mediated TTX-R current in human DRG neurons by manual patch clamp electrophysiology; details: DRG neuron
Your answer is read as nM, so omit the unit and give the number.

- CNC(=O)c1ccc(-c2cc(Cl)cc(Cl)c2Cl)c(N)n1: 310

Could you now consider this next molecule?
Lab note: measured IC50 of COc1ccc(Cl)c(-c2ccc(NC(=O)c3ccnn3C)nc2N)c1 [PF-04531083] was 200

----------
assay: Half life in rat at 2 mg/kg, iv; format: ADME, organism-based; details: in vivo
Reported Endpoint: half-life (h)
Your answer is read as h, so omit the unit and give the number.

Lab note: measured half-life of CNC(=O)c1ccc(-c2cc(Cl)cc(Cl)c2Cl)c(N)n1 was 4

----------
assay: Half life in rat at 3 mg/kg, po; assay type: ADME, organism-based; settings: in vivo
Reported Endpoint: half-life (h)
Your answer is read as h, so omit the unit and give the number.

Lab note: measured half-life of CC(=O)Nc1ccc(-c2cc(Cl)cc(Cl)c2Cl)c(N)n1 was 4.1

----------
experiment: Volume of distribution in dog at 0.1 mg/kg, iv; assay type: ADME, organism-based, Canis lupus familiaris; conditions: in vivo
Reported Endpoint: Vd (L/kg)
Your answer is read as L/kg, so omit the unit and give the number.

Lab note: measured Vd of Cc1nocc1C(=O)Nc1ccc(-c2ccccc2OC(F)(F)F)c(N)n1 was 5.3
